- tgt: human IL-6 (human, UniProt P05231 30-212)
- Sequence (P05231 30-212 limits assumed): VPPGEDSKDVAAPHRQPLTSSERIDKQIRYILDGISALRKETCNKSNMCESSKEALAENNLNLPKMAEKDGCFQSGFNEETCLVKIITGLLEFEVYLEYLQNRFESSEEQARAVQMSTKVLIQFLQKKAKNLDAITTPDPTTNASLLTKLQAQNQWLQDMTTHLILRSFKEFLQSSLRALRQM
- experiment.description: SPR Biacore, supernatant, Protein A capture, 37 C
measured.metric: Kd (nM)

binder	measured.metric	observed.measurement
Anti-IL-6 antibody, heavy chain S35H, G66D, Q99T / light chain M32L, M50D, N52S, M88Q (antibody, IgG1, V domains shown, IgG1; variable domains only; VL is variant III) VH: EVQLVESGGGLVQPGGSLRLSCAASGFTFSPFAMHWVRQAPGKGLEWVAKISPGGSWTYYSDTVTDRFTFSLDTSKSTAYLQMNSLRAEDTAVYYCARTLWGYYALDIWGQGTLVTVSS VL: DIQLTQSPSSLSASVGDRVTITCSASISVSYLYWYQQKPGKAPKLLIYDDSSLASGVPSRFSGSGSGTDFTLTISSLQPEDFATYYCQQWSGYPYTFGQGTKVEIK	Kd	6.51
Anti-IL-6 antibody, heavy chain G66D / light chain M32L, M50D, N52S, M88Q (antibody, IgG1, V domains shown, IgG1; variable domains only; VL is variant III) VH: EVQLVESGGGLVQPGGSLRLSCAASGFTFSPFAMSWVRQAPGKGLEWVAKISPGGSWTYYSDTVTDRFTFSLDTSKSTAYLQMNSLRAEDTAVYYCARQLWGYYALDIWGQGTLVTVSS VL: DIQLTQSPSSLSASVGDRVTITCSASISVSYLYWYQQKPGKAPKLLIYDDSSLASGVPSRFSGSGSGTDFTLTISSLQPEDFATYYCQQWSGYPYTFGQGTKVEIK	Kd	0.393
Anti-IL-6 antibody, heavy chain S35H, G66D, Q99P / light chain M32L, M50D, N52S, M88Q (antibody, IgG1, V domains shown, IgG1; variable domains only; VL is variant III) VH: EVQLVESGGGLVQPGGSLRLSCAASGFTFSPFAMHWVRQAPGKGLEWVAKISPGGSWTYYSDTVTDRFTFSLDTSKSTAYLQMNSLRAEDTAVYYCARPLWGYYALDIWGQGTLVTVSS VL: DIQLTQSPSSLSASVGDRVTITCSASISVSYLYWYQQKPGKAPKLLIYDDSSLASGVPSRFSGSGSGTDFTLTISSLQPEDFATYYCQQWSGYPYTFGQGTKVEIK	Kd	1.35
